assay: NCI Yeast Anticancer Drug Screen. Data for the cln2 rad14 strain (AID 165);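 further: 0% = growth equal to vehicle treated cultures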; conditions: S. cerevisiae cln2 rad14 strain, at 50.0 µM (retest, dose inferred, filed as 5.0)
Compounds without any hit were thinned out: in the full panel of roughly 79,000, 15% have a hit. The source made the active and inactive calls. No stated cut-off is given here; in the data, active means growth inhibition above about 70%; inactive means the rest.
Hi there, use one of these labels in your reply, thanks! YES (active), NO (inactive)

# molecule, category
data = [
    ("CSc1nc(N)c2cnn(C3OC(CO)C(O)C3O)c2n1 (stereo unspecified)", "NO"),
]

I'd appreciate the recorded outcome for COC12C=CC(CC1)C1=C2C(=O)c2nc(C)c(C)nc2C1=O (stereo unspecified) from this test.
NO

I'd appreciate the recorded outcome for O=C(/C(=C/c1ccc2c(c1)OCO2)c1ccccc1)c1ccc(OCCN2CCCC2)cc1 from this test.
NO

I'd appreciate the recorded outcome for O=C(/C=N/O)Nc1ccc(Cl)c(I)c1 from this test.
YES

I'd appreciate the recorded outcome for CCOC(=O)/C(C#N)=C/c1coc2cc(C)cc(C)c2c1=O from this test.
YES

I'd appreciate the recorded outcome for N#CCc1nc2c(s1)C(=O)c1ccccc1C2=O from this test.
YES

* * *

experiment: NCI Yeast Anticancer Drug Screen. Data for the bub3 strain (AID 167); details: S. cerevisiae bub3 mutant strain, at 5.0 µM (retest, dose inferred, filed as 0.5), hits give high values
The panel holds about 79,000 compounds, 15% with a hit somewhere; the sample as a whole holds those more often. Calls of active or inactive are those of the source. No stated cut-off is given here; in the data, active means growth inhibition above about 70%; inactive means the rest.
value type: growth inhibition

A selection of reference data follows.
# molecule, growth inhibition
measured = [
    ("COc1ccc(I)c(C=NC2CCCCC2)c1C", "35% (inactive)"),
    ("Cc1ccccc1Nc1nc(-c2ccccc2)nc(N)c1N=O", "4% (inactive)"),
    ("CC1SC2(C(=O)Nc3ccc(Br)cc32)N(c2ccc(Cl)cc2)C1=O (configuration not stated)", "15% (inactive)"),
]

Please state, for each entry, its recorded growth inhibition.
1. COC(=O)c1nc(=S)[nH]c(C(=O)OC)c1C(=O)c1ccc([N+](=O)[O-])cc1
2. OC(OC/C(I)=C(/I)COC(O)C(Cl)(Cl)Cl)C(Cl)(Cl)Cl (configuration not stated)

1. 5% (inactive)
2. 1% (inactive)

Please state, for each entry, its recorded growth inhibition.
1. c1cc(Nc2ccc(Nc3ccc(CN4CCCCC4)cc3)cc2)ccc1CN1CCCCC1
2. Oc1ccc(SCc2cc(O)ccc2O)cc1
3. CC(C)=CCc1ccc(O)cc1
4. Cc1ccc(N2C(=O)C(C)SC2=S)cc1Cl (configuration not stated)
5. Oc1ccc2c(c1)Cc1ccccc1-2
6. O=C(OC1C2CCC2C2CC21)c1ccc([N+](=O)[O-])cc1[N+](=O)[O-] (configuration not stated)
7. COc1ccc(Nc2nc3ccccc3s2)cc1

["63% (inactive)", "-26% (inactive)", "-10% (inactive)", "-4% (inactive)", "-2% (inactive)", "-5% (inactive)", "5% (inactive)"]

* * *

For each record, write down the corresponding growth inhibition.
test: NCI Yeast Anticancer Drug Screen. Data for the bub3 strain (AID 167); settings: S. cerevisiae bub3 mutant strain, at 5.0 µM (retest, dose inferred, filed as 0.5), hits give high values
The panel holds about 79,000 compounds, 15% with a hit somewhere; the sample as a whole holds those more often.
Numbers only, in %.

A selection of reference data follows.
# molecule, value type, unit name, quantitative readout
records = [
    ("Cc1ccc(S(=O)(=O)N2CCN(C)CC2)cc1", "growth inhibition", "%", 1),
    ("COC1OC(CO)C(O)C(OC(=O)c2ccc([N+](=O)[O-])cc2)C1OS(=O)(=O)c1ccc(C)cc1 (stereo not given)", "growth inhibition", "%", 2),
    ("O=C(NC(Cc1ccc(I)cc1)C(=O)O)c1cccc(Br)c1 (stereo not given)", "growth inhibition", "%", 21),
    ("CSC1=Nc2ccccc2SC(c2ccccc2)C1c1ccccc1 (stereo not given)", "growth inhibition", "%", 5),
    ("C(=C/c1ccnc2ccccc12)/c1cccs1", "growth inhibition", "%", 4),
    ("Cc1c(Cl)c(Cl)cc([N+](=O)[O-])c1Cl", "growth inhibition", "%", 11),
    ("O=C(Nc1ccc(Cl)cc1)NS(=O)(=O)c1c(-c2ccccc2)oc2ccccc2c1=O", "growth inhibition", "%", 0),
    ("CCC[CH2][Sn]([CH2]CCC)([O]C(=O)c1cc(F)cc(F)c1)[O][Sn]([CH2]CCC)([CH2]CCC)[O]C(=O)c1cc(F)cc(F)c1", "growth inhibition", "%", 49),
    ("Oc1cc2c(cc1C(c1ccc(Cl)cc1)N1CCOCC1)OCO2 (stereo not given)", "growth inhibition", "%", -7),
]

Read the next record carefully.
Could you share which growth inhibition value was measured for O=C(O)/C(=C\c1ccc(Cl)cc1)c1ccc(C(F)(F)F)cc1[N+](=O)[O-] ?
18

Origin of values: PubChem BioAssay (NCI)
